Task for the reader: assign each of the following molecules its reported pIC50.
Tested on: human bone marrow CD34+ cells
RUN_DESCRIPTION: In vitro liquid culture system for human megakaryocyte-specific development
Assay type: cell-based
EXPERIMENTAL_CONTEXT: 240 h, 10 days (differentiation and maturation), read-out: IC50, megakaryocyte lineage cells, day 10
Description: CD34^+ cells were harvested from normal human bone marrow and differentiated into megakaryocytes. […] In vitro human megakaryocyte differentiation was assessed using a liquid culture system in which the human bone marrow CD34^+ cells (lot # 0150114, ReachBio) derived from normal bone marrow were used. […] The megakaryocyte lineage cells characterized by an ability to exclude DAPI were analyzed by flow cytometry. The percentage of megakaryocyte lineage cells in the total CD34^+ cells were then calculated. […]
Numbers only, as −log10 of the molar value.

O=C(c1cc(Cc2n[nH]c(=O)c3ccccc23)ccc1F)N1CCN(C(=O)C2CC2)CC1 :: 5.89

Would you kindly look at the next entry?
Reported pIC50 ( NC(=O)c1cccc2cn(-c3ccc([C@@H]4CCCNC4)cc3)nc12 ) = 6.10

====

TARGET_OR_SYSTEM: BCRP (Homo sapiens, UniProt Q9UNQ0)
Construct: host or cells: MDCKII
RUN_DESCRIPTION: MDCKII-BCRP monolayer bidirectional transport assay
Assay type: in vitro ADME
EXPERIMENTAL_CONTEXT: human; MDCKII-BCRP cells; 1 μM; 120 minutes
Task for the reader: assign each of the following compounds its reported Papp B→A at 120 min, 1 μM.
Numbers only, in ×10⁻⁶ cm/s.

O=C(c1cc(Cc2n[nH]c(=O)c3ccccc23)ccc1F)N1CCN(C(=O)C2CC2)CC1 :: 41.4

Would you kindly look at the next entry?
Reported Papp B→A at 120 min, 1 μM ( NC(=O)c1cccc2cn(-c3ccc([C@@H]4CCCNC4)cc3)nc12 ) = 52.1

====

TARGET_OR_SYSTEM: MDR1 (P-gp) (Homo sapiens, UniProt P08183)
Construct: host or cells: MDCKII
Sequence (P08183 whole entry): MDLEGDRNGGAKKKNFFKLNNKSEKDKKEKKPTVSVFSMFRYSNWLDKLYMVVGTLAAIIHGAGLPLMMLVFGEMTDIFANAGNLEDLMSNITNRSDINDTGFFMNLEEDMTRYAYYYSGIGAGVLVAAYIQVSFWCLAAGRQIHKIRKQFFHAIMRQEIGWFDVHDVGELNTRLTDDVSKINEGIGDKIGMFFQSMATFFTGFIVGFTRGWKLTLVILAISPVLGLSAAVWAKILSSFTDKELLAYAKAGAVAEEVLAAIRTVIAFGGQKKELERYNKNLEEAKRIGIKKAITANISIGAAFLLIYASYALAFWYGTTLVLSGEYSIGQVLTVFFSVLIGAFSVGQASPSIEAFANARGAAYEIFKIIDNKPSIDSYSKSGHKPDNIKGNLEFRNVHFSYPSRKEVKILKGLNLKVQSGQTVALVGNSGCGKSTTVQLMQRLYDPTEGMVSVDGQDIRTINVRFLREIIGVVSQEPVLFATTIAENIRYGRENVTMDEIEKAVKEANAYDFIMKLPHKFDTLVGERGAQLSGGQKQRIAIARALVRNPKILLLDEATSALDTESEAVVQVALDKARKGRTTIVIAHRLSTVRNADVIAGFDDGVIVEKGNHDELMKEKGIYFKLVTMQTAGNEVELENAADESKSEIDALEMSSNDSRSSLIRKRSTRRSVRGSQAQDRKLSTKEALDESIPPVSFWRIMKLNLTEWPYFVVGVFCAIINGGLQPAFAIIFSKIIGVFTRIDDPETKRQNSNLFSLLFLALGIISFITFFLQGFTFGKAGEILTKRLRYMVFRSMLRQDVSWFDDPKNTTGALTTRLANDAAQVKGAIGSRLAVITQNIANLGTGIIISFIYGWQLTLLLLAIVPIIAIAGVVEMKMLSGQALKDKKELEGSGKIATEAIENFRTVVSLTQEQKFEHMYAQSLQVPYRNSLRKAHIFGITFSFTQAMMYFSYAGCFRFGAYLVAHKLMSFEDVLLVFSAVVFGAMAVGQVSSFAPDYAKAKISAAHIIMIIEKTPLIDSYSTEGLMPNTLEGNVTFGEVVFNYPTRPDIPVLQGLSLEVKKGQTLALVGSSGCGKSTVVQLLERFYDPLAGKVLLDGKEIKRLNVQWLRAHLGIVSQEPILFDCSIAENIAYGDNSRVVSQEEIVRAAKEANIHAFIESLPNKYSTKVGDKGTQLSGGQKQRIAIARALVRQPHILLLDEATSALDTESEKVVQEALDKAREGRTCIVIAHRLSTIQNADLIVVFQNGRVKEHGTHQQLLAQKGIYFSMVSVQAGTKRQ
RUN_DESCRIPTION: MDCKII-MDR1 monolayer bidirectional transport assay
Type: in vitro ADME
EXPERIMENTAL_CONTEXT: human, MDCK-MDR1; MDCKII-MDR1 cells; 100 μM; 120 minutes
Task for the reader: assign each of the following compounds its reported Papp B→A at 120 min, 100 μM.
Answers are plain numbers, in ×10⁻⁶ cm/s.

O=C(c1cc(Cc2n[nH]c(=O)c3ccccc23)ccc1F)N1CCN(C(=O)C2CC2)CC1 :: 57.5

Response field Papp B→A at 120 min, 100 μM (MDR1 (P-gp) (Homo sapiens, UniProt P08183)) for item NC(=O)c1cccc2cn(-c3ccc([C@@H]4CCCNC4)cc3)nc12 : 2.66

====

RUN_DESCRIPTION: Tissue and plasma PK in OVC134 ovarian PDX model
Assay type: in vivo, BALB/c nude mice
EXPERIMENTAL_CONTEXT: female, BALB/c nude, mouse, brain, po; read-out: Brain PK tmax
MEASURED_QUANTITY: Tmax (h)
Answers are plain numbers, in h.

O=C(c1cc(Cc2n[nH]c(=O)c3ccccc23)ccc1F)N1CCN(C(=O)C2CC2)CC1 :: 0.5

Reported Tmax ( NC(=O)c1cccc2cn(-c3ccc([C@@H]4CCCNC4)cc3)nc12 ) = 4

====

TARGET_OR_SYSTEM: MDR1 (P-gp) (Homo sapiens)
Construct: host or cells: MDCKII
RUN_DESCRIPTION: MDCKII-MDR1 monolayer bidirectional transport assay
Type: in vitro ADME
EXPERIMENTAL_CONTEXT: human, MDCK-MDR1; MDCKII-MDR1 cells; 1 μM; 120 minutes
Task for the reader: assign each of the following molecules its reported Papp A→B at 120 min, 1 μM.
Give bare numbers, in ×10⁻⁶ cm/s.

NC(=O)c1cccc2cn(-c3ccc([C@@H]4CCCNC4)cc3)nc12 :: 5.33

Reported Papp A→B at 120 min, 1 μM ( O=C(c1cc(Cc2n[nH]c(=O)c3ccccc23)ccc1F)N1CCN(C(=O)C2CC2)CC1 ) = 1.7

====

Task for the reader: assign each of the following molecules its reported Tmax.
RUN_DESCRIPTION: Tissue and plasma PK in OVC134 ovarian PDX model
Type: in vivo, BALB/c nude mice
EXPERIMENTAL_CONTEXT: female, BALB/c nude, mouse, tumor, po; read-out: Tumor PK tmax
One number for each entry, in h.

NC(=O)c1cccc2cn(-c3ccc([C@@H]4CCCNC4)cc3)nc12 :: 4

Reported Tmax ( O=C(c1cc(Cc2n[nH]c(=O)c3ccccc23)ccc1F)N1CCN(C(=O)C2CC2)CC1 ) = 0.5

====

TARGET_OR_SYSTEM: BCRP (Homo sapiens, UniProt Q9UNQ0)
Construct: host or cells: MDCKII
RUN_DESCRIPTION: MDCKII-BCRP monolayer bidirectional transport assay
Format: in vitro ADME
EXPERIMENTAL_CONTEXT: human; MDCKII-BCRP cells; 10 μM; 120 minutes
MEASURED_QUANTITY: Papp B→A at 120 min, 10 μM

NC(=O)c1cccc2cn(-c3ccc([C@@H]4CCCNC4)cc3)nc12 :: 59.6 ×10⁻⁶ cm/s

Would you kindly look at the next entry?
Response field Papp B→A at 120 min, 10 μM (BCRP (Homo sapiens, UniProt Q9UNQ0)) for item O=C(c1cc(Cc2n[nH]c(=O)c3ccccc23)ccc1F)N1CCN(C(=O)C2CC2)CC1 : 44.1 ×10⁻⁶ cm/s

====

TARGET_OR_SYSTEM: BCRP (Homo sapiens)
Construct: host or cells: MDCKII
Sequence (Q9UNQ0 1-655): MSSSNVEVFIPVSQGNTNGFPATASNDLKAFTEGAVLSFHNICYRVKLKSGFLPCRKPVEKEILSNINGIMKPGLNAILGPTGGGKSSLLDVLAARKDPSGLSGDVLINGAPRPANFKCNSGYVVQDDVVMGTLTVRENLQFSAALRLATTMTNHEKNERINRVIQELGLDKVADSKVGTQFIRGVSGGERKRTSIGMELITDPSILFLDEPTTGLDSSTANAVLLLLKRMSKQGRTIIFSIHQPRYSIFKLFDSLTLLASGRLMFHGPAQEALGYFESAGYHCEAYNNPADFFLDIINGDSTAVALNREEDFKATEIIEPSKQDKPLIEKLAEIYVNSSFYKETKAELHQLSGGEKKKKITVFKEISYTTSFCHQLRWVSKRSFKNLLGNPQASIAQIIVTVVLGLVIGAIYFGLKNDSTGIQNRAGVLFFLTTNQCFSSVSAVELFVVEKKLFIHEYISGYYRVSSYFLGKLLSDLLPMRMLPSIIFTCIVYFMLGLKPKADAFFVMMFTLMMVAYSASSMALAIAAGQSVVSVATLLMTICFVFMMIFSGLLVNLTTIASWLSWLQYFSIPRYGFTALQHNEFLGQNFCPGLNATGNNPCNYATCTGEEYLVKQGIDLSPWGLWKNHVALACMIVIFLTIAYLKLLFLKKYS
RUN_DESCRIPTION: MDCKII-BCRP monolayer bidirectional transport assay
Type: in vitro ADME
EXPERIMENTAL_CONTEXT: human; MDCKII-BCRP cells; 1 μM; 120 minutes
Task for the reader: assign each of the following molecules its reported Papp A→B at 120 min, 1 μM.
Answers are plain numbers, in ×10⁻⁶ cm/s.

NC(=O)c1cccc2cn(-c3ccc([C@@H]4CCCNC4)cc3)nc12 [Niraparib] :: 4.83

Would you kindly look at the next entry?
Reported Papp A→B at 120 min, 1 μM ( O=C(c1cc(Cc2n[nH]c(=O)c3ccccc23)ccc1F)N1CCN(C(=O)C2CC2)CC1 [Olaparib] ) = 1.12

====

RUN_DESCRIPTION: Tissue and plasma PK in OVC134 ovarian PDX model
Format: in vivo, BALB/c nude mice
EXPERIMENTAL_CONTEXT: female, BALB/c nude, mouse, plasma, po; read-out: Plasma PK tmax
Task for the reader: assign each of the following molecules its reported Tmax.
Hi, when you answer, please include the unit after the number. Thanks!

O=C(c1cc(Cc2n[nH]c(=O)c3ccccc23)ccc1F)N1CCN(C(=O)C2CC2)CC1 [Olaparib] :: 0.5 h

Would you kindly look at the next entry?
Reported Tmax ( NC(=O)c1cccc2cn(-c3ccc([C@@H]4CCCNC4)cc3)nc12 [Niraparib] ) = 4 h

====

TARGET_OR_SYSTEM: MDR1 (P-gp) (Homo sapiens)
Construct: host or cells: MDCKII
RUN_DESCRIPTION: MDCKII-MDR1 monolayer bidirectional transport assay
Assay type: in vitro ADME
EXPERIMENTAL_CONTEXT: human, MDCK-MDR1; MDCKII-MDR1 cells; 1 μM; 120 minutes
MEASURED_QUANTITY: Papp B→A at 120 min, 1 μM (×10⁻⁶ cm/s)
Give bare numbers, in ×10⁻⁶ cm/s.

NC(=O)c1cccc2cn(-c3ccc([C@@H]4CCCNC4)cc3)nc12 [Niraparib] :: 54.3

Would you kindly look at the next entry?
Response field Papp B→A at 120 min, 1 μM (MDR1 (P-gp) (Homo sapiens)) for item O=C(c1cc(Cc2n[nH]c(=O)c3ccccc23)ccc1F)N1CCN(C(=O)C2CC2)CC1 [Olaparib] : 46.5
